Nitric oxide synthase 3 (Homo sapiens, UniProt P29474) log10(IC50), compiled from various sources.
# experimental system: Nitric oxide synthase 3 (Homo sapiens, UniProt P29474)
# Sequence (P29474 whole entry): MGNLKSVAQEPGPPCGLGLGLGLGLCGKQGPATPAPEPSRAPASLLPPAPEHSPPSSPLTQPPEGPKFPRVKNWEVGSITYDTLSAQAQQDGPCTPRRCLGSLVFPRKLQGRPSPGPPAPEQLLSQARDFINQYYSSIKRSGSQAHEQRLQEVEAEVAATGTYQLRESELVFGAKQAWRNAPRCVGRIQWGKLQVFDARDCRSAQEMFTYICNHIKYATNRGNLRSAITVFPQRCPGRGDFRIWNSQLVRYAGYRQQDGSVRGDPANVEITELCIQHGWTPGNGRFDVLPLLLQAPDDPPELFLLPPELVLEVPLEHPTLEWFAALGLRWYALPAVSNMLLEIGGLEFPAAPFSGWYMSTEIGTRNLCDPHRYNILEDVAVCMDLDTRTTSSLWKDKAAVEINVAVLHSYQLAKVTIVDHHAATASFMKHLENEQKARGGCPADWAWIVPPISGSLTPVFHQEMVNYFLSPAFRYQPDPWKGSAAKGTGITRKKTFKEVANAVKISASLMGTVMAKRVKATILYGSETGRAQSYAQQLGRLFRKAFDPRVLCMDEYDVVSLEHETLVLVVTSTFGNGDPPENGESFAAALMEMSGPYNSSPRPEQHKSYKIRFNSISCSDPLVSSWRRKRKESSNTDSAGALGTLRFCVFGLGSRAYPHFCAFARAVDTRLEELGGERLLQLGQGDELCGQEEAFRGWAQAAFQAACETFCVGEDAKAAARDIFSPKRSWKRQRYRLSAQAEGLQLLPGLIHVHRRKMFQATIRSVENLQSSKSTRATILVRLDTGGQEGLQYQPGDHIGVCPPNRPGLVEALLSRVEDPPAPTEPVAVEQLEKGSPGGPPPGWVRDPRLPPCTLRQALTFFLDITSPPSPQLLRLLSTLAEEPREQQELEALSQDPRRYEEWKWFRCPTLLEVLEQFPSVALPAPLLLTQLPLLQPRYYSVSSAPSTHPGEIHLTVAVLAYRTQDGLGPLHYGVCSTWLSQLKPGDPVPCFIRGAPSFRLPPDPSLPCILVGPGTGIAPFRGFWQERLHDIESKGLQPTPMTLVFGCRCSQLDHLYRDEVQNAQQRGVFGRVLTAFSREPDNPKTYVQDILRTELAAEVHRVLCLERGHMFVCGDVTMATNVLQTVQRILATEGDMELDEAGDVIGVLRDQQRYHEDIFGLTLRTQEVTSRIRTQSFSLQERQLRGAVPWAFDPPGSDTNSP
The figures below represent log10 of IC50, where IC50 is stated in µM.

Worked set:
- CCC1CCCCN=C1N (configuration not stated): 1.58
- COc1cc(/C=C/C(=O)N[C@H](Cc2ccc(O)cc2)C(=O)O)ccc1O: 1.67
- COc1ccnc(CCc2nc3c(OC)ccnc3[nH]2)c1: 2.31
- NC1=NC(CO)CSCC1 (configuration not stated): 0.78
- CCC[C@H]1CSCCC(N)=N1: 0.00

Now consider the entry below.
Task: For the compound NC1=N[C@H]2CCCC[C@@H]2CC1 , give its measured log10(IC50) value.
Result: 0.74
